Assay: photoluminescence quantum yield (fraction); solvent given as SMILES
Settings: in Cc1ccccc1

smiles text	photoluminescence quantum yield
O=Cc1nc2ccc(C#Cc3ccc(N(c4ccc(C#Cc5ccc6nc(C=O)sc6c5)cc4)c4ccc(C#Cc5ccc6nc(C=O)sc6c5)cc4)cc3)cc2s1	0.65
COC(=O)/C(C#N)=c1\s/c(=c2/s/c(=C(/C#N)C(=O)OC)c3cc(-c4ccc(OC)cc4)sc23)c2sc(-c3ccc(OC)cc3)cc12	0.424
CN1c2ccc(C(=O)c3ccccc3)cc2Sc2cc(C(=O)c3ccccc3)ccc21	0.4
CCC1(CC)c2cc(C#Cc3cc(C#Cc4ccc5c(c4)C(CC)(CC)c4cc(N(c6ccccc6)c6ccccc6)ccc4-5)c4ccc5c(C#Cc6ccc7c(c6)C(CC)(CC)c6cc(N(c8ccccc8)c8ccccc8)ccc6-7)cc(C#Cc6ccc7c(c6)C(CC)(CC)c6cc(N(c8ccccc8)c8ccccc8)ccc6-7)c6ccc3c4c65)ccc2-c2ccc(N(c3ccccc3)c3ccccc3)cc21	0.43
CCCCCCC(CCCCCC)N1C(=O)c2cccc3c(-c4ccccc4)ccc(c23)C1=O	0.5
N#Cc1c(-n2c3ccccc3c3cc(Br)ccc32)c(-n2c3ccccc3c3cc(Br)ccc32)c(C#N)c(-n2c3ccccc3c3cc(Br)ccc32)c1-n1c2ccccc2c2cc(Br)ccc21	0.53
